FYI, the data here is from patent US20240239812A1.

- measuredOn: UniProt:Q07820
- Sequence (Q07820 whole entry): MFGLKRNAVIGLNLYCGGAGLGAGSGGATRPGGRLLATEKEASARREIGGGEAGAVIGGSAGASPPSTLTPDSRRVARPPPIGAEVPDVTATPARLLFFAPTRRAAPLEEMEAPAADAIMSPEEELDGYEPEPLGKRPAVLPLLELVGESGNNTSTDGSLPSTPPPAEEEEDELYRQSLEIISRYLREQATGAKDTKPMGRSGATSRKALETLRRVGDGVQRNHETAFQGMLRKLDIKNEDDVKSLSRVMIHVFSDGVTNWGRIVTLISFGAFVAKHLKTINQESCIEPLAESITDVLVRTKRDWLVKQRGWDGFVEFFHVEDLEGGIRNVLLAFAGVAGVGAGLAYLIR
endpointLabel: Ki (nM)
Please respond with the number in nM and leave the unit unwritten.

Report its Ki with UniProt:Q07820 as the test system: COc1nn(C)cc1C(=O)NS1(=O)=NC(=O)c2ccc3c(c2)N(C[C@@H]2CCO[C@H]2C(OC)/C=C/C[C@H](C)C1)C[C@@]1(CCCc2cc(Cl)ccc21)CO3 (single isomer, unassigned) [Compound 11]
0.94

Name the value of Ki reported for `CO[C@@H]1/C(F)=C/C[C@H](C)[C@@H](C)S(=O)(=O)NC(=O)c2ccc3c(c2)N(C[C@@H]2CCO[C@H]21)C[C@@]1(CCCc2cc(Cl)ccc21)CO3` when tested on UniProt:Q07820.
1.13

Provide Ki, system UniProt:Q07820, entry COCC1/C=C/C[C@H](C)[C@@H](C)S(=O)(=O)NC(=O)c2ccc3c(c2)N(C[C@@H]2CCO[C@@H]12)C[C@@]1(CCCc2cc(Cl)ccc21)CO3 (stereo partly shown) [Compound 16]
0.673

// fetch Ki; item: C[C@@H]1[C@@H](C)C/C=C/C(O)[C@@H]2OCC[C@H]2CN2C[C@@]3(CCCc4cc(Cl)ccc43)COc3ccc(cc32)C(=O)NS1(=O)=O (single isomer, unassigned) ; system: UniProt:Q07820
0.717
